target: human δ-opioid receptor (OPRD1) (Homo sapiens); assay: Forskolin-induced cAMP accumulation assay, DOR agonist; conditions: read-out: DOR Agonist %Emax ± SEM, cAMP assay; normalized to the forskolin control
Sequence (P41143 whole entry): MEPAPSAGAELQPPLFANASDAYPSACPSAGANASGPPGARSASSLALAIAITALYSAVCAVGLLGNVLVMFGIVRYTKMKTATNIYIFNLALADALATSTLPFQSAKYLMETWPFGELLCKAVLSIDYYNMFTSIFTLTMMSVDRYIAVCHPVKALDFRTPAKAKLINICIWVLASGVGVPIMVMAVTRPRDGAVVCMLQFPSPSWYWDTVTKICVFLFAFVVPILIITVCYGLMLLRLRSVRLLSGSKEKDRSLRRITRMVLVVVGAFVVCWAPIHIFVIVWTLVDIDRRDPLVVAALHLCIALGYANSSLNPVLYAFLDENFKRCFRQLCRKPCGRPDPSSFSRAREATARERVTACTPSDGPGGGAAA
propertyMeasured: Emax (%)
Answers are plain numbers, in %.

molecule	propertyMeasured	experimentalResult
OCCC[C@H]1[C@@H]2CCC[C@@]1(c1cccc(O)c1)CCN2CCc1ccccc1 [Compound 36]	Emax	41
OCC[C@H]1[C@@H]2CCC[C@@]1(c1cccc(O)c1)CCN2CCc1ccccc1 [Compound 21]	Emax	38

Quick request: Emax for each listed item, please.
1. OC[C@H]1[C@H]2CCC[C@]1(c1cccc(O)c1)CCN2CCc1ccccc1 [Compound 11]
2. OC[C@H]1[C@@H]2CCC[C@@]1(c1cccc(O)c1)CCN2CCc1ccccc1 [Compound 15]
3. COC[C@H]1[C@H]2CCC[C@]1(c1cccc(O)c1)CCN2CCc1ccccc1 [Compound 41]

## Output
35
17
20

---

Assignment: determine reported pEC50 for the given molecules.
biological target: human µ-opioid receptor β-arrestin2 (Homo sapiens); construct: EFC (enzyme fragment complementation) fragment; assay: cell-based
Sequence (P35372 whole entry, the tested form may be a part): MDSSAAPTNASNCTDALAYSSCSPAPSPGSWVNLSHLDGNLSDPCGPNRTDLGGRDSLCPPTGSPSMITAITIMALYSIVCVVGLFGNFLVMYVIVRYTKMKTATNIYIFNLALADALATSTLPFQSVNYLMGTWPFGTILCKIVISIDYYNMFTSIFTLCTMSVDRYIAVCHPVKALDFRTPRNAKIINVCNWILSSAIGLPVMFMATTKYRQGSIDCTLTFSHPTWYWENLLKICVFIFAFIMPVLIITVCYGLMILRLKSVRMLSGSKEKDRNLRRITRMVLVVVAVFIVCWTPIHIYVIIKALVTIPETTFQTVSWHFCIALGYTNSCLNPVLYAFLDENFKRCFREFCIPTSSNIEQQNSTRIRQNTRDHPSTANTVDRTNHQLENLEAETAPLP
pEC50: −log10 of the molar value.

molecule	assayedTarget	pEC50
OC[C@H]1[C@@H]2CCC[C@@]1(c1cccc(O)c1)CCN2CCc1ccccc1 [Compound 15]	human µ-opioid receptor β-arrestin2 (Homo sapiens)	< 4.30
OCC[C@H]1[C@@H]2CCC[C@@]1(c1cccc(O)c1)CCN2CCc1ccccc1 [Compound 21]	human µ-opioid receptor β-arrestin2 (Homo sapiens)	< 4.30

Pending molecule:
## Input Please look at OCCC[C@H]1[C@@H]2CCC[C@@]1(c1cccc(O)c1)CCN2CCc1ccccc1 [Compound 36] and tell me its recorded pEC50 on human µ-opioid receptor β-arrestin2 (Homo sapiens).
## Output < 4.30
